Entry source: PubChem BioAssay (NCI)

system: NCI/ADR-RES ovarian; assay: NCI tumour cell line growth inhibition, 48 h
readout.kind: TGI

Task: Entry under review: CN(C)CCNC(=O)c1cccc2[nH]c(-c3ccc(Cl)cc3)nc12 . Reported TGI?
Output: 21 µM

Task: Can you share its TGI? I mean this compound: O=C1CCc2ccccc2O1
Output: > 100 µM

Task: Looking for the measured TGI of C=C(C)C1CCC2(C(=O)O)CCC3(C)C(CCC4C5(C)CCC(O)C(C)(C)C5CCC43C)C12 (configuration not stated) , can you help?
Output: 31.5 µM

Task: Form field: reported TGI of Cn1c(=O)c(-c2c(Cl)cccc2Cl)cc2cnc(Nc3ccc(I)cc3)nc21
Output: 0.225 µM

Task: Need TGI of N/C(=N\C(N)=N\c1nc2ccccc2s1)c1ccnc(Br)c1 , thanks.
Output: 7.95 µM

Task: Consider the compound O=c1cc(NNc2cccc(F)c2)[nH]c(=S)[nH]1 and give its measured TGI.
Output: > 100 µM

Task: Which TGI value belongs to O=C(NCCCl)NCc1ccccc1 ?
Output: > 100 µM

Task: For the compound CC1=C(C(=O)NCCCN(CCO)CCO)CC(C(=O)NCCCN(CCO)CCO)=C(C)N1 , what TGI is on record?
Output: > 100 µM

Task: Please look up its TGI: CON(C(=O)OC(C)(C)C)c1ccccc1
Output: > 100 µM

Task: Can you look up the measured TGI of CCOC(=O)Nc1cc(-c2ccc(C)c(NS(C)(=O)=O)c2)nn2c(C)nnc12 for me?
Output: > 100 µM

Task: Give the measured TGI of COc1ccc(N2C(=O)C(=O)C3(CCCCC3)C2=O)c(OC)c1OC .
Output: > 100 µM

Task: For the compound NNc1ncnc2cccc(Cl)c12 , what TGI is on record?
Output: > 100 µM

Task: For C=CC(=C)CCC(Br)C(C)(C)Cl (configuration not stated) , what is its reported TGI?
Output: > 100 µM

Task: Quick one: TGI of O=c1[nH]c(-c2ccc(Cl)cc2)cc2ccsc12 ?
Output: > 100 µM

Task: Can you share its TGI? I mean this compound: CCOC(=O)C(NC(=O)c1ccccc1)(Nc1ccc(S(=O)(=O)Nc2ccc(OC)nn2)cc1)C(F)(F)F (configuration not stated)
Output: > 100 µM

Task: So what does the record say about TGI for Cc1cc(N)c2cc(NC(=O)Nc3ccc4nc(C)cc(N)c4c3)ccc2n1 ?
Output: > 100 µM

Task: Fill blank: measured TGI of the compound CSc1nc(SC)c2c(C)cn(C3OC(C)C(O)C(O)C3O)c2n1 (configuration not stated) is ____.
Output: > 100 µM

Task: Can you share its TGI? I mean this compound: CC1(C)OC2[C@@H](CO[C@@]3([C@H]4OC(C)(C)O[C@@H]4CO)OC(C)(C)O[C@@H]23)O1 (some centres not stated)
Output: > 100 µM

Task: For the compound CN1C(=O)[C@@H]2[C@@H]3c4ccccc4N[C@@H]3c3[nH]c4ccccc4c3[C@@H]2C1=O , what TGI is on record?
Output: 52 µM

Task: Name the recorded TGI for COc1cc(/C=C2\CC3C4CCC5=CC(=O)CC[C@]5(C)C4CC[C@]3(C)C2=O)ccc1OCCN1CCCCC1 (some centres not stated) .
Output: > 100 µM

Task: What value of TGI has been recorded for this entry: CC(C)(N)C(=O)N[C@@H]1C(=O)N2[C@@H]1SC(C)(C)[C@@H]2C(=O)O
Output: > 100 µM

Task: Sample COc1cccc(/C=N/NC(=O)CN(C)C)c1O — what was its TGI?
Output: > 100 µM
